Would you mind telling me the reported self-cleavage of each entry?
B1: LINE1-full (parent)
chain: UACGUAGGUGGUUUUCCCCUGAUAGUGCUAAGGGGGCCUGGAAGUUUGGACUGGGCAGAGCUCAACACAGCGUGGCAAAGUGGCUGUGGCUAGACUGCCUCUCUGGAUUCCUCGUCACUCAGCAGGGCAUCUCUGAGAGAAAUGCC

- Variants of: B1
- assay_comment: self-cleavage, relative activity (ratio to wild type); higher = more cleavage; in vitro, sequencing; the parent is a self-cleaving ribozyme
Number only, please.

// lookup self-cleavage for G48A C131G
0.17

// query: G105A A121U
1.46

// query: U81A U85A
0.09

// query: A77G U85A
0.06

// query: G122C A136U
1.96

// query: U1A U12C
1.4

// query: A2G C19U
0.56

// query: U1A U115C
1.3

// query: U47C A92U
0.77

// query: A22U G49A
1.08

// query: A94G C145U
0.17

// query: U100C C145U
2.29

// query: A42G A77U
1.02

// query: G34A A124U
1.32

// query: G32C A67G
0

// query: G55A C111U
0.3

// query: C18A U115G
0.99

// query: C90U A136G
0.05

// query: A92U G139A
0.76

// query: U26A U104A
0.98

// query: U46C G48U
1.61

// query: U9C U39A
1.17

// query: U87C A107G
0.27

// query: A78G G86A
0.05

// query: U46A U108C
1.37

// query: U39C U115A
1.05

// query: U39A U85A
0.11

// query: A24C A121G
2.59

// query: A6U A67U
0.22

// query: A64G U119C
0.32

// query: U5A U26A
1.37

// query: U9A C145U
1.64

// query: G97C U108A
0.14

// query: U81A A129U
2.57

// query: A24G A138G
1.07

// query: U47C A69G
0.44

// query: G60A A121U
0.1

// query: C19U C123U
1.58

// query: A67C A141G
0.12

// query: A24G A67G
0.45

// query: U100C A138U
1.51

// query: U46C A59G
0.16

// query: A6G U9C
1.16

// query: A94G G125C
0.57

// query: U26A U87A
0.01

// query: G4U U96A
0.09

// query: A43U A121U
0.79

// query: U47G G60A
0.02

// query: U29A G54A
0.75

// query: C84U A136U
0.13

// query: U73C C113A
1.4

// query: U9G U52G
1.05

// query: U62G A69U
0.05

// query: A50U U81G
0.74

// query: U20A A94G
0.18

// query: G32U C113U
0.49

// query: U9A G93A
0.06

// query: U29C G60A
0.02

// query: A43G U73A
1.53

// query: A79C U87A
0.18

// query: U23C C113U
0.88

// query: A67U U143C
0.2

// query: U15C G114A
0.71

// query: A69C U104C
0.22

// query: C3U A117U
1.31

// query: U5C U119C
1.41

// query: A67U U81A
0.07

// query: A77U A136C
1.67

// query: U52C C84G
0

// query: U12A A30G
0.94

// query: G114A G125U
1.49

// query: A50C A121G
2.3

// query: U81C U119A
1.59

// query: A22G U81C
1.18

// query: U39C U85A
0.05

// query: A22G C37G
0.79

// query: U1A A30C
1.44

// query: U9G U96A
0

// query: C84G C146A
0.1

// query: G82C U119A
2.14

// query: C68A U109C
0.06

// query: A24C G49A
0.82

// query: U15C U100C
1.81

// query: G53A A64G
0.12

// query: U9A C128U
0.9

// query: G40A
1.16

// query: A67C C110A
0.05

// query: U12G A65U
0.23

// query: A67U U96A
0.02

// query: U104C C113U
1.8

// query: U12C U119C
1.64

Origin of measurements: the RNAGym collection of RNA variant scans (doi:10.7554/elife.90254)
